System: SN12C renal
Assay: NCI tumour cell line growth inhibition, 384-well format
Each entry below carries its reported TGI.

compound-structure-string	comparison-sign	TGI, µM
CCC(CC)n1cnc2c(-c3cnc(N)cn3)nc(N3CC4CCC(C3)O4)nc21	>	100
COC[C@H](NC(=O)c1cnc(C)s1)C(=O)N[C@@H](COC)C(=O)N[C@@H](Cc1ccccc1)C(=O)[C@@]1(C)CO1	=	0.0303
Cc1c(Cn2c(C)nc3c(C(=O)O)cc(N4CCOCC4)cc32)cccc1C(F)(F)F	>	100
C[C@@H]1C[C@H](N)C[C@H](c2ccncc2NC(=O)c2ccc(F)c(-c3c(F)cccc3F)n2)C1	=	27.6
Cc1c(CN2CCN(C(=O)[C@H](C)O)CC2)sc2c(N3CCOCC3)nc(-c3cnc(N)nc3)nc12	=	0.694

====

Test system: EKVX NSCLC
Assay: NCI tumour cell line growth inhibition, 384-well format
Below, each of the molecules is paired with its reported TGI value.
measurement-kind: TGI

compound-structure-string	reading
CCC(CC)n1cnc2c(-c3cnc(N)cn3)nc(N3CC4CCC(C3)O4)nc21	9.92 µM
COc1ccc(Br)cc1NC(=O)Nc1cccc2c1ccn2Cc1ccnc(N)c1	22 µM
Cc1c(Cn2c(C)nc3c(C(=O)O)cc(N4CCOCC4)cc32)cccc1C(F)(F)F	> 100 µM
COC[C@H](NC(=O)c1cnc(C)s1)C(=O)N[C@@H](COC)C(=O)N[C@@H](Cc1ccccc1)C(=O)[C@@]1(C)CO1	0.0773 µM

====

Test system: SNB-75 CNS
Experiment: NCI tumour cell line growth inhibition, 384-well format

compound-structure-string	GI50
CCC(CC)n1cnc2c(-c3cnc(N)cn3)nc(N3CC4CCC(C3)O4)nc21	312 nM
COc1ccc(Br)cc1NC(=O)Nc1cccc2c1ccn2Cc1ccnc(N)c1	14100 nM
COc1cc2nc(N3CCCN(C)CC3)nc(NC3CCN(Cc4ccccc4)CC3)c2cc1OC	1660 nM
Cc1c(CN2CCN(C(=O)[C@H](C)O)CC2)sc2c(N3CCOCC3)nc(-c3cnc(N)nc3)nc12	143 nM
COC[C@H](NC(=O)c1cnc(C)s1)C(=O)N[C@@H](COC)C(=O)N[C@@H](Cc1ccccc1)C(=O)[C@@]1(C)CO1	< 10 nM
C[C@@H]1C[C@H](N)C[C@H](c2ccncc2NC(=O)c2ccc(F)c(-c3c(F)cccc3F)n2)C1	7540 nM

====

Tested on: HS 578T breast
Test: NCI tumour cell line growth inhibition, 384-well format

compound-structure-string	comparison-sign	TGI / µM
CCC(CC)n1cnc2c(-c3cnc(N)cn3)nc(N3CC4CCC(C3)O4)nc21	=	0.927
Cc1c(Cn2c(C)nc3c(C(=O)O)cc(N4CCOCC4)cc32)cccc1C(F)(F)F	>	100
C[C@@H]1C[C@H](N)C[C@H](c2ccncc2NC(=O)c2ccc(F)c(-c3c(F)cccc3F)n2)C1	=	21.9
COc1ccc(Br)cc1NC(=O)Nc1cccc2c1ccn2Cc1ccnc(N)c1	=	17.8

====

System: NCI-H226 lung
Assay: NCI tumour cell line growth inhibition, 384-well format; in the data active = GI50 below about 0.43 µM; inactive = the rest
Possible outcomes: 1 (active), 0 (inactive)

compound-structure-string	group
CCC(CC)n1cnc2c(-c3cnc(N)cn3)nc(N3CC4CCC(C3)O4)nc21	0
Cc1c(CN2CCN(C(=O)[C@H](C)O)CC2)sc2c(N3CCOCC3)nc(-c3cnc(N)nc3)nc12	1
Cn1ncc(Cl)c1-c1cc(C(=O)N[C@H](CN)Cc2cccc(F)c2)sc1Cl	0
COc1ccc(Br)cc1NC(=O)Nc1cccc2c1ccn2Cc1ccnc(N)c1	0
Cc1c(Cn2c(C)nc3c(C(=O)O)cc(N4CCOCC4)cc32)cccc1C(F)(F)F	0

====

Entries and their TGI values follow.
Test system: MDA-MB-231 breast
Test: NCI tumour cell line growth inhibition, 384-well format

compound-structure-string	comparison-sign	TGI / µM
Cn1ncc(Cl)c1-c1cc(C(=O)N[C@H](CN)Cc2cccc(F)c2)sc1Cl	=	18.8
CCC(CC)n1cnc2c(-c3cnc(N)cn3)nc(N3CC4CCC(C3)O4)nc21	>	100
COc1ccc(Br)cc1NC(=O)Nc1cccc2c1ccn2Cc1ccnc(N)c1	=	26.1
COC[C@H](NC(=O)c1cnc(C)s1)C(=O)N[C@@H](COC)C(=O)N[C@@H](Cc1ccccc1)C(=O)[C@@]1(C)CO1	<	0.01

====

Tested on: IGROV1 ovarian
Assay: NCI tumour cell line growth inhibition, 384-well format
Overview of reported TGI across a group of compounds:

compound-structure-string	TGI
C[C@@H]1C[C@H](N)C[C@H](c2ccncc2NC(=O)c2ccc(F)c(-c3c(F)cccc3F)n2)C1	19900 nM
CCC(CC)n1cnc2c(-c3cnc(N)cn3)nc(N3CC4CCC(C3)O4)nc21	894 nM
Cc1c(Cn2c(C)nc3c(C(=O)O)cc(N4CCOCC4)cc32)cccc1C(F)(F)F	> 100000 nM
Cc1c(CN2CCN(C(=O)[C@H](C)O)CC2)sc2c(N3CCOCC3)nc(-c3cnc(N)nc3)nc12	192 nM
COC[C@H](NC(=O)c1cnc(C)s1)C(=O)N[C@@H](COC)C(=O)N[C@@H](Cc1ccccc1)C(=O)[C@@]1(C)CO1	51.2 nM
COc1cc2nc(N3CCCN(C)CC3)nc(NC3CCN(Cc4ccccc4)CC3)c2cc1OC	3830 nM

====

Tested on: COLO 205 colon
Assay: NCI tumour cell line growth inhibition, 384-well format; in the data active = GI50 below about 0.43 µM; inactive = the rest
Outcomes: active, inactive

compound-structure-string	group
Cc1c(CN2CCN(C(=O)[C@H](C)O)CC2)sc2c(N3CCOCC3)nc(-c3cnc(N)nc3)nc12	active
Cc1c(Cn2c(C)nc3c(C(=O)O)cc(N4CCOCC4)cc32)cccc1C(F)(F)F	inactive
COC[C@H](NC(=O)c1cnc(C)s1)C(=O)N[C@@H](COC)C(=O)N[C@@H](Cc1ccccc1)C(=O)[C@@]1(C)CO1	active
COc1cc2nc(N3CCCN(C)CC3)nc(NC3CCN(Cc4ccccc4)CC3)c2cc1OC	inactive

====

System: HCC-2998 colon
Assay: NCI tumour cell line growth inhibition, 384-well format; in the data active = GI50 below about 0.43 µM; inactive = the rest
Possible outcomes: active, inactive

compound-structure-string	group
C[C@@H]1C[C@H](N)C[C@H](c2ccncc2NC(=O)c2ccc(F)c(-c3c(F)cccc3F)n2)C1	inactive
Cc1c(Cn2c(C)nc3c(C(=O)O)cc(N4CCOCC4)cc32)cccc1C(F)(F)F	inactive
Cn1ncc(Cl)c1-c1cc(C(=O)N[C@H](CN)Cc2cccc(F)c2)sc1Cl	inactive
COC[C@H](NC(=O)c1cnc(C)s1)C(=O)N[C@@H](COC)C(=O)N[C@@H](Cc1ccccc1)C(=O)[C@@]1(C)CO1	active
COc1cc2nc(N3CCCN(C)CC3)nc(NC3CCN(Cc4ccccc4)CC3)c2cc1OC	inactive

====

Tested on: MDA-MB-468 breast
Experiment: NCI tumour cell line growth inhibition, 384-well format

compound-structure-string	unit-of-measurement	comparison-sign	TGI
CCC(CC)n1cnc2c(-c3cnc(N)cn3)nc(N3CC4CCC(C3)O4)nc21	µM	=	1.2
Cc1c(CN2CCN(C(=O)[C@H](C)O)CC2)sc2c(N3CCOCC3)nc(-c3cnc(N)nc3)nc12	µM	=	0.352
COc1cc2nc(N3CCCN(C)CC3)nc(NC3CCN(Cc4ccccc4)CC3)c2cc1OC	µM	=	2.45
Cn1ncc(Cl)c1-c1cc(C(=O)N[C@H](CN)Cc2cccc(F)c2)sc1Cl	µM	=	1.95
COC[C@H](NC(=O)c1cnc(C)s1)C(=O)N[C@@H](COC)C(=O)N[C@@H](Cc1ccccc1)C(=O)[C@@]1(C)CO1	µM	<	0.01
C[C@@H]1C[C@H](N)C[C@H](c2ccncc2NC(=O)c2ccc(F)c(-c3c(F)cccc3F)n2)C1	µM	=	10.2

====

Tested on: HCT-15 colon
Assay: NCI tumour cell line growth inhibition, 384-well format; in the data active = GI50 below about 0.43 µM; inactive = the rest
Classes used: active, inactive

compound-structure-string	group
Cc1c(CN2CCN(C(=O)[C@H](C)O)CC2)sc2c(N3CCOCC3)nc(-c3cnc(N)nc3)nc12	active
COc1cc2nc(N3CCCN(C)CC3)nc(NC3CCN(Cc4ccccc4)CC3)c2cc1OC	inactive
Cn1ncc(Cl)c1-c1cc(C(=O)N[C@H](CN)Cc2cccc(F)c2)sc1Cl	inactive
CCC(CC)n1cnc2c(-c3cnc(N)cn3)nc(N3CC4CCC(C3)O4)nc21	inactive
C[C@@H]1C[C@H](N)C[C@H](c2ccncc2NC(=O)c2ccc(F)c(-c3c(F)cccc3F)n2)C1	inactive

====

System: T-47D breast
Assay: NCI tumour cell line growth inhibition, 384-well format
Form field: TGI (one value per entry).

compound-structure-string	unit-of-measurement	comparison-sign	TGI
COC[C@H](NC(=O)c1cnc(C)s1)C(=O)N[C@@H](COC)C(=O)N[C@@H](Cc1ccccc1)C(=O)[C@@]1(C)CO1	nM	<	10
COc1cc2nc(N3CCCN(C)CC3)nc(NC3CCN(Cc4ccccc4)CC3)c2cc1OC	nM	=	3200
Cc1c(Cn2c(C)nc3c(C(=O)O)cc(N4CCOCC4)cc32)cccc1C(F)(F)F	nM	>	100000
Cn1ncc(Cl)c1-c1cc(C(=O)N[C@H](CN)Cc2cccc(F)c2)sc1Cl	nM	=	2050

Attribution: PubChem BioAssay (NCI)
